For each of the compounds below, state its pIC50.
Molecular target: H1047R PIK3CA enzyme (Homo sapiens, UniProt P42336, H1047R)
Sequence (P42336 whole entry H1047R): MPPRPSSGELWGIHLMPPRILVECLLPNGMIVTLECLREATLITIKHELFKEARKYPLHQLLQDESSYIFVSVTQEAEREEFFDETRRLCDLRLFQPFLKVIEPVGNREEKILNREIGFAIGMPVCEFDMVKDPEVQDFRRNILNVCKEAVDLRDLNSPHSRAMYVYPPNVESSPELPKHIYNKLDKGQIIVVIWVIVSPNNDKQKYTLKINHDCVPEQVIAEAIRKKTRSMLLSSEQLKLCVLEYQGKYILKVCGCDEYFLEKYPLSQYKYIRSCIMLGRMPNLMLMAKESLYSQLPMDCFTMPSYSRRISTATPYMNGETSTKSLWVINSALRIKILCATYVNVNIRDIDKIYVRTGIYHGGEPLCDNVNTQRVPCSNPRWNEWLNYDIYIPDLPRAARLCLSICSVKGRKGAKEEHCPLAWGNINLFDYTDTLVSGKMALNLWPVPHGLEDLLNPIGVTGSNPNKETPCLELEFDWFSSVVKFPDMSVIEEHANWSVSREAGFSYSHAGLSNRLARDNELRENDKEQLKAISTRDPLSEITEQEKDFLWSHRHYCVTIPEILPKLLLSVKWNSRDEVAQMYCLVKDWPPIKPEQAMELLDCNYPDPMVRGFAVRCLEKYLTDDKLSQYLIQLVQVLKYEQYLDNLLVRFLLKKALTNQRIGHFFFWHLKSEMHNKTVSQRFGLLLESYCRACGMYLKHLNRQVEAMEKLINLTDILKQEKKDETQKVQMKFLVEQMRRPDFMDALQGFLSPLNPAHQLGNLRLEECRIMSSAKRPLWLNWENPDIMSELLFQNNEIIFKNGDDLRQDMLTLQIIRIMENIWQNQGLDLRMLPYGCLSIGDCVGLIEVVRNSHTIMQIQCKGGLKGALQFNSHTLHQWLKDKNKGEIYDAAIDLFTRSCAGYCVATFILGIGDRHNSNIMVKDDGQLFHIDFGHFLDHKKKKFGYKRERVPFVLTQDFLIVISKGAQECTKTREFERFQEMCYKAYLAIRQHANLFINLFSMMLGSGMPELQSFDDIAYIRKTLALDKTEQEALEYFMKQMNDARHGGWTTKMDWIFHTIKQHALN
Sequence (P27986 whole entry partner): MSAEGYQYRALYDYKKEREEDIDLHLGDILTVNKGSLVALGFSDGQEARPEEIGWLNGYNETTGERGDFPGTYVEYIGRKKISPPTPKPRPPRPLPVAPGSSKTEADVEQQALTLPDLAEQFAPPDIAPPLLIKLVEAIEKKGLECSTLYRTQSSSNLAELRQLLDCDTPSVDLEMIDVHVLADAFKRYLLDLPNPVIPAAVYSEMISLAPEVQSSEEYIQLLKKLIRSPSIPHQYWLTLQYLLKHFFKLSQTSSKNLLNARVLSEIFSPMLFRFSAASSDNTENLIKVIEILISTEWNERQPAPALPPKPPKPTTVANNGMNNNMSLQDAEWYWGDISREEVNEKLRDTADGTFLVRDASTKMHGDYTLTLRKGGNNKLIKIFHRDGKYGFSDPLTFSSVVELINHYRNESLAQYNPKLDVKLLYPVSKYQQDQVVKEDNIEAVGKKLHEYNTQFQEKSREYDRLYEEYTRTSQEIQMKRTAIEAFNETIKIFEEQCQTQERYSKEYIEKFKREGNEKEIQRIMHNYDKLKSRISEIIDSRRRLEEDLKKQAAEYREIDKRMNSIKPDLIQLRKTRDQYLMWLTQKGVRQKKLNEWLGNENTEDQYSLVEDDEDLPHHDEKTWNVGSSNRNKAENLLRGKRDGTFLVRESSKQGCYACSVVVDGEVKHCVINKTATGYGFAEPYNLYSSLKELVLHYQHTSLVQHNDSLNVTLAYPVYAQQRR
Experiment: ADP-Glo Biochemical PIK3CA Kinase Assay
Experimental: Compounds to be assayed were plated in 16 doses of 1:2 serial dilutions (20 nL volume each well) on a 1536-well plate, and the plate warmed to room temperature. […] To the well was added 1 μL of 200 μM ATP and 20 μM of diC8-PIP2 in Substrate Assay Buffer (50 mM HEPES pH7.4, 50 mM NaCl, 5 mM DTT and 0.03% CHAPS) to start the reaction, and the plate was shaken for 10 seconds, then spun briefly at 1500 rpm, and then incubated for 60 minutes at room temperature. […]
pIC50: −log10 of the molar value.

Value of measured pIC50 for the entry O=C(Nc1cc(-c2ccc3ncnn3c2)cc2c1[C@H](c1cc(F)cc(F)c1Cl)NC2=O)c1cc(F)cc(C(F)(F)F)c1 (stereo in doubt) : ≥ 7.00

Per the records, this compound ( Nc1cc(C2NC(=O)c3cccc(NC(=O)c4cc(F)cc(C(F)(F)F)c4)c32)ccn1 (stereo not drawn) ) has pIC50 equal to 4.00 to 5.00

Record summary for CN1C[C@H](Nc2cc(NC(=O)c3cc(F)cc(C(F)(F)F)c3)c3c(c2)C(=O)NC3c2cc(F)ccc2Cl)CC1=O (single isomer, unassigned) : reported pIC50 = ≥ 7.00

// recorded pIC50 for CC(C)(C)N[C@@H]1NC(=O)c2cccc(NC(=O)c3cc(F)cc(C(F)(F)F)c3)c21 (single isomer, unassigned) : 4.00 to 5.00

Form: compound = O=C(Nc1cc(CN2CCC(F)(F)C2)cc2c1C(c1cc(F)ccc1Cl)NC2=O)c1cc(F)cc(C(F)(F)F)c1 (stereo not drawn) ; pIC50 = ≥ 7.00

What the record says about O=C1COC(c2cc(NC(=O)c3cc(F)cc(C(F)(F)F)c3)c3c(c2)C(=O)NC3c2cc(F)ccc2Cl)CN1 (stereo not drawn) : pIC50 is ≥ 7.00

The measured pIC50 associated with Cc1ccccc1C1NC(=O)c2cccc(NC(=O)N3CC(=O)Nc4ccccc43)c21 (stereo not drawn) reads 4.00 to 5.00

Entry under test: Cn1cc(-c2cc(NC(=O)c3cc(F)cc(C(F)(F)F)c3)c3c(n2)C(=O)N[C@@H]3c2cc(F)ccc2Cl)cn1 . Its pIC50 was 6.00 to 6.30

Given item O=C1NC(c2cc(F)ccc2Cl)c2c(NC(=O)[C@H]3C[C@@H](O)c4ccccc43)cc(Br)cc21 (mixture of isomers) , the value recorded as its pIC50 is 4.00 to 5.00

pIC50 in this record for O=C1NC(c2cc(F)ccc2Cl)c2c(NC(=O)N3CCCc4ccccc4C3)cccc21 (stereo not drawn) : 4.00 to 5.00

# pIC50 (compound: O=C1NC(c2cc(F)ccc2Cl)c2c(NC(=O)N3CCc4ccccc43)cc(Br)cc21 (stereo not drawn) ) is ≥ 7.00

According to the records, this compound N#Cc1nc2ccc(-c3cc(NC(=O)c4cc(F)cc(C(F)(F)F)c4)c4c(c3)C(=O)NC4c3cc(F)ccc3Cl)cn2n1 (stereo not drawn) displays pIC50 of ≥ 7.00
